- study_system: Ba/F3 cells, ABL1 T315I (Homo sapiens, UniProt P00519, T315I, cells depend on it)
- assay_procedure: 96-well XTT cell survival assay, Ba/F3 ABL1 T315I
- Assay type: cell-based
- setup_conditions: 72 hours, read-out: ABL1 T315I XTT [Ba/F3] IC50
- Description: MV4-11 and THP cells were maintained in Iscove's Modified Dulbecco's Medium supplemented with 10% fetal bovine serum (FBS) and penicillin/streptomycin, Ba/F3 cells were maintained in RPMI 1640 supplemented with 10% FBS, penicillin/streptomycin and 5 ng/ml recombinant mouse IL-3. Compounds were tested in the following assays in duplicate. […]
experimental_endpoint: GI50

Use these answered entries as a reference point.
compound	GI50
COc1ccccc1-c1c[nH]c2ncc(-c3cccc(C(O)C(=O)N(C)CC4CCN(C)CC4)c3)cc12 (stereo not shown)	< 1 µM
COc1ccccc1-c1c[nH]c2ncc(-c3cccc(C(O)CN)c3)cc12 (stereo not shown)	> 1 µM
COc1ccccc1-c1n[nH]c2ncc(-c3cccc(C(C)(O)C(=O)N4CC(O)C4)c3)cc12 (stereo not shown)	> 1 µM
COc1ccccc1-c1n[nH]c2ncc(-c3cccc(C(O)C(=O)N(C)C4CCOCC4)c3)cc12 (stereo not shown)	< 1 µM

Then this compound:
Could you share which GI50 value was measured for COc1ccccc1-c1c[nH]c2ncc(-c3cccc(C4NC(=O)NC(C)=C4C(=O)N(C)C)c3)cc12 (stereo not shown) ?
> 1 µM
